protocol.description: Counterscreen for APE1 Inhibitors: Fluorescent Dye Displacement Validation Assay (AID 1707); further: potency means the concentration at half of the fitted maximal effect
stated.conditions: fluorescent dye displacement from DNA; series mostly up to 57.1 µM
Results filed as inconclusive are left out. Activity calls are given as the source filed them. The call rests on the fitted dose curve; in most records, active means well fitted inhibition curve with a large enough effect; inconclusive means small, poorly fitted or top-dose-only effect; inactive means no such curve, though single readings can be large or run the other way.
assay.endpoint: Potency

compound	assay.endpoint	obs.value
Cc1c(OCC(F)(F)F)ccnc1CS(=O)c1nc2ccccc2[nH]1 (stereo not given)	Potency	inactive
Nc1nc(OCc2ccccc2)c2[nH]cnc2n1	Potency	inactive
O=Nc1c(-c2c(O)[nH]c3cc(Br)ccc23)[nH]c2ccccc12	Potency	20 µM (active)
O=C(c1ccccc1)c1ccc2n1CCC2C(=O)O (stereo not given)	Potency	inactive

Here is another compound to look at.
Query string: Read the entry "CCN(CC)C(=S)SSC(=S)N(CC)CC" and write its reported Potency.
Result string: inactive

----------
protocol.description: qHTS profiling of the MIPE4 collection as inhibitors of Plasmodium falciparum (DD2) proliferation (Rep 2) (AID 743346)
stated.conditions: P. falciparum Dd2 in erythrocytes, SYBR Green DNA, 72 h; at 28.5 µM (top of the series) unless noted
Non-standard residues stand in square brackets, D forms with d. Residues, ends and D or L forms follow the SMILES beside them. *: point of attachment. Sta = CC(C)C[C@H](N)[C@@H](O)CC(=O)O; Isovaleryl = CC(C)CC(=O)*
Criterion: parasite growth, % of control (lower = inhibition) strictly under 40%. Met: t. Not met: f.

Look over these answered cases.
compound	assigned.category
COCCCN1CCC(NC(=O)c2cc(Cl)c(N)c3c2OCC3)CC1	t
Oc1ccc2ccccc2c1SSc1c(O)ccc2ccccc12	t
Cc1ccc(C(=O)c2cc(O)c(O)c([N+](=O)[O-])c2)cc1	f
CCOc1cc(CC(=O)N[C@@H](CC(C)C)c2ccccc2N2CCCCC2)ccc1C(=O)O	f
CC(C)CC(=O)N[C@H](C(=O)N[C@H](C(=O)N[C@@H](CC(C)C)[C@@H](O)CC(=O)N[C@@H](C)C(=O)N[C@@H](CC(C)C)[C@@H](O)CC(=O)O)C(C)C)C(C)C (Isovaleryl-VV[Sta]A[Sta]-OH)	f
Clc1ccc(C(Cn2ccnc2)OCc2ccsc2Cl)c(Cl)c1 (centres undefined)	t
CCCOc1ccc2nc(NC(=O)OC)[nH]c2c1	f
CCN(CC)CCOc1ccc(Nc2ncc3cc(-c4c(Cl)cccc4Cl)c(=O)n(C)c3n2)cc1	t

Moving on to the next compound.
Query string: Answer whether the compound "Cn1c(NCCN(CCO)CCCc2ccc([N+](=O)[O-])cc2)cc(=O)n(C)c1=O" has parasite growth, % of control (lower = inhibition) strictly less than 40%
Result string: t

----------
protocol.description: Primary qHTS for inhibitors of nuclear receptor binding SET domain protein 2 (NSD2) in an RCH-ACV wild type WT cells (2C) (AID 1645877); further: nearly all actives have a fitted effect of over 70% in size; further: potency means the concentration at half of the fitted maximal effect
stated.conditions: RCH-ACV (leukaemia line) NSD2 WT (2C) viability, CellTiter-Glo, 72 h; series mostly up to 44.9 µM
Description: Assay Provider: Jonathan D. Licht, MD University of Florida College of Medicine, Gainesville, FL Mutations in epigenetic regulators are common in relapsed pediatric acute lymphoblastic leukemia (ALL). Here, we uncovered the mechanism underlying the relapse of ALL driven by an activating mutation of the NSD2 histone methyltransferase (p.E1099K). […] Correction of this mutation restored glucocorticoid sensitivity. […]
Records with an inconclusive call do not appear. The source made the active and inactive calls. Calls come from the whole dose curve; as a rule, active = well fitted inhibition curve with a large enough effect; inconclusive = small, poorly fitted or top-dose-only effect; inactive = no such curve, though single readings can be large or run the other way.
assay.endpoint: Potency

# example entries with known answers
O=c1cc(N2CCOCC2)oc2c(-c3ccccc3)cccc12 2.63 µM (active)
NC(=NCc1ccccc1)NC(=O)c1nc(Cl)c(N)nc1N 13.2 µM (active)
N=C(N=C(N)N)N1CCOCC1 inactive
O=C(O)CCNC(=O)c1ccc(N=Nc2ccc(O)c(C(=O)O)c2)cc1 inactive
CCN(CC)CCOc1ccc(Cc2ccccc2)cc1 29.9 µM (active)

Field: next compound
Query string: // fetch Potency given entry "CC(C)c1ccc2c(c1)c(SC(C)(C)C)c(CC(C)(C)C(=O)O)n2Cc1ccc(Cl)cc1"
Result string: inactive

----------
protocol.description: Cell Viability - LYMP1-003 - Assay at 24 hr (AID 963)
stated.conditions: LYMP1-003 lymphoblastoid cell viability; series mostly up to 92.2 µM
Calls of active or inactive are those of the source. Calls come from the whole dose curve; as a rule, active = well fitted cell-killing curve with a large enough effect; inconclusive = small, poorly fitted or top-dose-only effect; inactive = flat fitted curve, though single readings scatter. Peptide text beside a SMILES is read from it.
Return exactly one item of active, inactive

Please review the entries below; each comes with its answer.
compound	assigned.category
Nc1ccc(S(N)(=O)=O)cc1	inactive
Cc1cc(O)c2c(c1)C(=O)c1cc(O)cc(O)c1C2=O	inactive
Cc1ccc(C)c(OCCCC(C)(C)C(=O)O)c1	inactive

Query string: Could you please tell me the result logged for "CC(=O)Nc1ccc(O)cc1" in this assay?
Result string: inactive

Query string: Answer briefly: the call reported for "CN(C)c1ccc2nc3ccc(=[N+](C)C)cc-3sc2c1" in this assay.
Result string: active

Query string: Hello, I am checking results. What call was entered for CCCCC(CC)COC(=O)C(C#N)=C(c1ccccc1)c1ccccc1 (stereo not drawn) ?
Result string: inactive

Query string: For this compound, state the assay outcome: "c1ccc2[nH]c(-c3cscn3)nc2c1"
Result string: inactive

Query string: // outcome(item) with item = COC(=O)[C@H](Cc1ccccc1)NC(=O)[C@@H](N)CC(=O)O (H-Asp-Phe-OMe)
Result string: inactive

----------
protocol.description: Cell Viability - H-4-II-E (AID 543);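 further: cells exposed to compound for 40 hours; nearly all actives have a fitted effect of over 35% in size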
stated.conditions: H-4-II-E rat hepatoma viability; series mostly up to 92.2 µM
Inconclusive results are not listed. Active and inactive are the calls of the source. Calls follow the shape of the dose curve; as a rule, active = well fitted cell-killing curve with a large enough effect; inconclusive = small, poorly fitted or top-dose-only effect; inactive = flat fitted curve, though single readings scatter. Peptide text beside a SMILES is read from it.
Pick one: yes for active, no for inactive

compound	assigned.category
CCc1nc(N)nc(N)c1-c1ccc(Cl)cc1	yes
COc1c2occc2cc2ccc(=O)oc12	no
CC(=O)Nc1ccc(O)cc1	no
Cc1cc(O)c2c(c1)C(=O)c1cc(O)cc(O)c1C2=O	yes

Query string: Outcome? COC(=O)[C@H](Cc1ccccc1)NC(=O)[C@@H](N)CC(=O)O (H-Asp-Phe-OMe)
Result string: no

Query string: Hey, what did the test say about "CS(=O)(=O)OCCCCOS(C)(=O)=O" ?
Result string: no

Query string: What classification did "CCCc1cc(=O)[nH]c(=S)[nH]1" end up with in this test?
Result string: no

Query string: How did this test come out for "Cc1ccc(C)c(OCCCC(C)(C)C(=O)O)c1" ?
Result string: no

Query string: Per the assay record, what outcome was assigned to "Nc1ccc(S(N)(=O)=O)cc1" ?
Result string: no

----------
protocol.description: qHTS of pediatric cancer cell lines to identify multiple opportunities for drug repurposing: Primary screen for LAN-5 cells (AID 1347100); further: potency means the concentration at half of the fitted maximal effect
stated.conditions: LAN-5 neuroblastoma viability, CellTiter-Glo luminescence, 48 h; series mostly up to 46 µM
Results filed as inconclusive are left out. The source made the active and inactive calls. Calls follow the shape of the dose curve; as a rule, active = well fitted cell-killing curve with a large enough effect; inconclusive = small, poorly fitted or top-dose-only effect; inactive = no such curve, though single readings can be large or run the other way. Non-standard residues stand in square brackets, D forms with d. Residues, ends and D or L forms follow the SMILES beside them. Peptide text beside a SMILES is read from it. *: point of attachment. Sta = CC(C)C[C@H](N)[C@@H](O)CC(=O)O; Isovaleryl = CC(C)CC(=O)*
assay.endpoint: Potency

Completed entries (count: 7):
compound	obs.value
COC(=O)[C@H](Cc1ccccc1)NC(=O)[C@@H](N)CC(=O)O (H-Asp-Phe-OMe)	inactive
Cc1nc(-c2ccc(OCC(C)C)c(C#N)c2)sc1C(=O)O	inactive
CC(C)CC(=O)N[C@H](C(=O)N[C@H](C(=O)N[C@@H](CC(C)C)[C@@H](O)CC(=O)N[C@@H](C)C(=O)N[C@@H](CC(C)C)[C@@H](O)CC(=O)O)C(C)C)C(C)C (Isovaleryl-VV[Sta]A[Sta]-OH)	inactive
C[C@@H](N)C1CCC(C(=O)Nc2ccncc2)CC1 (stereo partly drawn)	inactive
O=C(CCc1ccc(O)cc1)c1c(O)cc(O)cc1O	6.62 µM (active)
O=C(NC(Cc1cc(=O)[nH]c2ccccc12)C(=O)O)c1ccc(Cl)cc1 (stereo not drawn)	inactive
CCCCc1ccc2nc(NC(=O)OC)[nH]c2c1	0.0118 µM (active)

Query string: Using known records, supply Potency for "CCCCCCCCCCCCCCCCCCCCCCO"
Result string: inactive

----------
protocol.description: Quantitative High-Throughput drug screen in 47 multiple myeloma cell lines against the NCATS MIPE library collection: MM1R_ATCC cell viability assay (AID 1918981); further: nearly all actives have a fitted effect of over 35% in size
stated.conditions: MM1R multiple myeloma cells, CellTiter-Glo viability, 48 h; series mostly up to 45.8 µM
Source text: PI: Beverly A. Mock Ph.D. Laboratory of Cancer Biology and Genetics, Center for Cancer Research, National Cancer Institute, National Institute of Health, Bethesda, Maryland […] 5; Detector; 425V; Luminescence; Viewlux PerkinElmer. […] 1. […] Briefly, the corresponding myeloma cell lines were screened in 1,536-well plates with 500 cells, 5-uL per well for inhibition of cell viability (assessed by measuring ATP levels with CellTiterGlo). […]
Records with an inconclusive call do not appear. The source made the active and inactive calls. The call rests on the fitted dose curve; in most records, active means well fitted cell-killing curve with a large enough effect; inconclusive means small, poorly fitted or top-dose-only effect, or effect the other way; inactive means no such curve, though single readings can be large or run the other way.
Tick one outcome: y for active, n for inactive

# example entries with known answers
molecule	assigned.category
CCCCc1ccc2nc(NC(=O)OC)[nH]c2c1	y
CC1(C)C(=O)N(CCN2CCC(C(=O)c3ccc(F)cc3)CC2)c2ccccc21	y
COCCCOc1ccnc(CS(=O)c2nc3ccccc3[nH]2)c1C (stereo not drawn)	n
Oc1ccc(OCc2ccccc2)cc1	n
NC(=NCc1ccccc1)NC(=O)c1nc(Cl)c(N)nc1N	n

Query string: # lookup: test call for "CCC[C@@H]1C[C@@H](C(=O)N[C@@H]([C@H]2O[C@H](SC)[C@H](O)[C@@H](O)[C@H]2O)[C@@H](C)O)N(C)C1"
Result string: n

Query string: Entry Nc1ccn([C@@H]2O[C@H](CO)[C@@H](O)C2O)c(=O)n1 (stereo partly drawn) : call = ?
Result string: n

Query string: Hi, do you know how COC(=O)C1=C(C)NC(C)=C(C(=O)OC(C)C)C1c1cccc2nonc12 (stereo not drawn) came out in this test?
Result string: n

Query string: Assay outcome for "Nc1cc(C(Cl)=C(Cl)Cl)c(S(N)(=O)=O)cc1S(N)(=O)=O" : what was it?
Result string: n
